# target_desc: NHE-1 (Homo sapiens, UniProt P19634)
# Construct: endogenous in cells
# Sequence (P19634 whole entry): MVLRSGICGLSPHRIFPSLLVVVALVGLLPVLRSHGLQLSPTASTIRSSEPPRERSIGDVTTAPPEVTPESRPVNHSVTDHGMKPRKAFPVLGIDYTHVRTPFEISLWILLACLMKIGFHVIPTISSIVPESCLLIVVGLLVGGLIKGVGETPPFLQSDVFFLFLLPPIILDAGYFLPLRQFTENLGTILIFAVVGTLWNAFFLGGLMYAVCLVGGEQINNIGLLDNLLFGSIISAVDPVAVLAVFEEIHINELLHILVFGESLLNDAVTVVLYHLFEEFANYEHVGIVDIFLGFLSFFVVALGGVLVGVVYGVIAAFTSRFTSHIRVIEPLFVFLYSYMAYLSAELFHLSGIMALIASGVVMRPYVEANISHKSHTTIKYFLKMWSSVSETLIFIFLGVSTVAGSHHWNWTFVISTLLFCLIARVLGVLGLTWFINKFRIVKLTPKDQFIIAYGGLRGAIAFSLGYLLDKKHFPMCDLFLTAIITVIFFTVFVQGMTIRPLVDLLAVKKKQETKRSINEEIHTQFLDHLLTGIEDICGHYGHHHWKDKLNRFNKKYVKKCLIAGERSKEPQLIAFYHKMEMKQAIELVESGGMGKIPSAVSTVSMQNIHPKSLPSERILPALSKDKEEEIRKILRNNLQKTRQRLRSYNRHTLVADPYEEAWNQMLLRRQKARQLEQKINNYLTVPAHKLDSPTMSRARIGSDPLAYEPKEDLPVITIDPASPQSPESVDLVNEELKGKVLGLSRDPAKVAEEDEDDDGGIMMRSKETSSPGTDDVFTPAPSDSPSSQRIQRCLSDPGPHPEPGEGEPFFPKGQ
# test_description: Evaluation of NHE-1 Inhibition (pHi) in HT-29 cells
# condition: BCECF dye, 50% inhibition of the intracellular pH recovery, read-out: NHE1 HT29 pHi IC50
measured_quantity: pIC50
// pIC50: -log10(molar conc.)

N=C(N)NC(=O)c1ccc(C2CCN(C(=O)c3cccc(F)c3)CC2)c(C(F)(F)F)c1 : 6.98
N=C(N)NC(=O)c1ccc(C2CCN(C(=O)c3ccc[nH]3)C2)c(C(F)(F)F)c1 (stereo not drawn) : 7.72
COc1cc(C2CCN(C(=O)c3ccc4c(c3)CCC(=O)N4)CC2)c(C(F)(F)F)cc1C(=O)NC(=N)N : 8.40
N#Cc1ccc(C(=O)N2CCC(c3ccc(C(=O)NC(=N)N)cc3C(F)(F)F)CC2)cn1 : 7.41
COc1ncccc1C(=O)N1CCC(c2ccc(C(=O)NC(=N)N)cc2C(F)(F)F)CC1 : 7.38

Requested read-out: pIC50. Entry: CN1CCCC(C(=O)N2CCC(c3ccc(C(=O)NC(=N)N)cc3C(F)(F)F)CC2)C1 (stereo not drawn) 8.00

Which pIC50 is listed for CS(=O)(=O)c1ccc(C(=O)N2CCC(c3ccc(C(=O)NC(=N)N)cc3C(F)(F)F)CC2)cc1 ? 7.68

Look up pIC50 for this compound: COc1cc(C(=O)N2CCC(c3ccc(C(=O)NC(=N)N)cc3C(F)(F)F)CC2)ccn1 7.40
